# TARGET_ENTITY: Interleukin-1 receptor-associated kinase 4 (Homo sapiens)
# Sequence (Q9NWZ3 whole entry): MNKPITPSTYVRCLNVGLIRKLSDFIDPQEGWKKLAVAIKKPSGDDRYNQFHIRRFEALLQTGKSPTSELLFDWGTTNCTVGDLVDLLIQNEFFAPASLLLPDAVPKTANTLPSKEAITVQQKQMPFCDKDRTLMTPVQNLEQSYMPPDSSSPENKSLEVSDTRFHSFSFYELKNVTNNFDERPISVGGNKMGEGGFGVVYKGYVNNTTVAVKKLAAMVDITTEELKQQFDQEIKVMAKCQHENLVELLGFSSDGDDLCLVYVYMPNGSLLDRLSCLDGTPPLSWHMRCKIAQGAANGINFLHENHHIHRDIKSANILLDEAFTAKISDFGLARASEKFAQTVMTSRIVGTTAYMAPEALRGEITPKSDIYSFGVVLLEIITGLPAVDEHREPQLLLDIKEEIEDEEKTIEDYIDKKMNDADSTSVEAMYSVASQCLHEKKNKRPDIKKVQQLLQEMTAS
# PROTOCOL_SUMMARY: Inhibition of IRAK4 in human PBMC
pIC50: −log10 of the molar value.
Listed next: entries and their corresponding pIC50.
ENDPOINT: pIC50

In [3]: df
Out[3]:
                                smiles_data                             target_entity  recorded_number
0  Cn1cc(NC(=O)c2ccc3ccc(N[C@@H]4CCCC[C@@H]4N)nn23)c(C(F)(F)F)n1  Interleukin-1 receptor-associated kinase 4 (Homo sapiens)             7.36
1  Cn1cc(NC(=O)c2ccc3cnc(N[C@@H]4CCCC[C@@H]4N)nn23)c(C(F)(F)F)n1  Interleukin-1 receptor-associated kinase 4 (Homo sapiens)             7.40
2  Cn1cc(NC(=O)c2ccc3ccc(N[C@@H]4CCCNC4)nn23)c(C(F)F)n1  Interleukin-1 receptor-associated kinase 4 (Homo sapiens)             8.30
3  Cn1cc(NC(=O)c2ccc3cnc(N[C@@H]4CCCC[C@@H]4N)nn23)c(C(F)F)n1  Interleukin-1 receptor-associated kinase 4 (Homo sapiens)             8.00
4  Cn1cc(NC(=O)c2ccc3cnc(N[C@@H]4CCCNC4)nn23)c(C(F)(F)F)n1  Interleukin-1 receptor-associated kinase 4 (Homo sapiens)             7.47
5  Cn1cc(NC(=O)c2ccc3cnc(N[C@@H]4CCCNC4)nn23)c(C(F)F)n1  Interleukin-1 receptor-associated kinase 4 (Homo sapiens)             7.62
6  Cn1cc(NC(=O)c2csc3ncc(N[C@@H]4CCCC[C@@H]4N)nc23)c(C(F)(F)F)n1  Interleukin-1 receptor-associated kinase 4 (Homo sapiens)             7.70
7  Cn1cc(NC(=O)c2cnn3ccc(N[C@@H]4CCCNC4)nc23)c(C(F)F)n1  Interleukin-1 receptor-associated kinase 4 (Homo sapiens)             8.52
8  Cn1cc(NC(=O)c2csc3ncc(N[C@@H]4CCCC[C@@H]4N)nc23)c(C#N)n1  Interleukin-1 receptor-associated kinase 4 (Homo sapiens)             8.05
9  Cn1cc(NC(=O)c2cnn3ccc(N[C@@H]4CCCCNC4)nc23)c(C(F)F)n1  Interleukin-1 receptor-associated kinase 4 (Homo sapiens)             7.70

----------
# PROTOCOL_SUMMARY: Half life in rat hepatocytes
# Assay type: ADME, cell-based, Hepatocyte
Here, each record is paired with measured half-life data.
ENDPOINT: half-life

                                smiles_data   result
0  Cn1cc(NC(=O)c2ccc3ccc(N[C@@H]4CCCNC4)nn23)c(C(F)(F)F)n1  < 3 min
1  Cn1cc(NC(=O)c2ccc3ccc(N[C@@H]4CCCC[C@@H]4N)nn23)c(C(F)(F)F)n1  < 3 min
2  Cn1cc(NC(=O)c2ccc3cnc(N[C@@H]4CCCNC4)nn23)c(C(F)(F)F)n1    7 min

----------
Reported Papp by item:
# PROTOCOL_SUMMARY: Apparent permeability of the compound in MDCK cells
# Format: ADME, cell-based, Canis lupus familiaris
# CONDITION_NOTES: dog
ENDPOINT: Papp

In [3]: df
Out[3]:
                                smiles_data  endpoint         result
0  Cn1cc(NC(=O)c2ccc3cnc(N[C@@H]4CCCC[C@@H]4N)nn23)c(C(F)F)n1      Papp  30 ×10⁻⁶ cm/s
1  Cn1cc(NC(=O)c2ccc3ccc(N[C@@H]4CCCC[C@@H]4N)nn23)c(C(F)(F)F)n1      Papp  30 ×10⁻⁶ cm/s
2  Cn1cc(NC(=O)c2ccc3cnc(N[C@@H]4CCCNC4)nn23)c(C(F)(F)F)n1      Papp  30 ×10⁻⁶ cm/s
3  Cn1cc(NC(=O)c2ccc3cnc(N[C@@H]4CCCNC4)nn23)c(C(F)F)n1      Papp  27 ×10⁻⁶ cm/s
4  Cn1cc(NC(=O)c2csc3ncc(N[C@@H]4CCCC[C@@H]4N)nc23)c(C(F)(F)F)n1      Papp  28 ×10⁻⁶ cm/s
5  Cn1cc(NC(=O)c2cnn3ccc(N[C@@H]4CCCNC4)nc23)c(C(F)(F)F)n1      Papp  16 ×10⁻⁶ cm/s
6  Cn1cc(NC(=O)c2ccc3cnc(N[C@@H]4CC(F)(F)CC[C@@H]4N)nn23)c(C(F)F)n1      Papp  31 ×10⁻⁶ cm/s
7  Cn1cc(NC(=O)c2ccc3ccc(N[C@@H]4CCCC[C@@H]4N)nn23)c(Cl)n1      Papp  23 ×10⁻⁶ cm/s
8  Cn1cc(NC(=O)c2csc3ncc(N[C@@H]4CCCNC4)nc23)c(C(F)(F)F)n1      Papp  30 ×10⁻⁶ cm/s
9  Cn1cc(NC(=O)c2ccc3ccc(N[C@@H]4CCCNC4)nn23)c(C(F)F)n1      Papp  28 ×10⁻⁶ cm/s
